- Tested on: HeLa
- Protocol text: Primary qHTS to identify gynecologic anti-cancer compounds using libraries of approved drugs and bioactive compounds (AID 1345084); note: nearly all actives have a fitted effect of over 55% in size; note: potency is the fitted concentration of half-maximal effect
- Reported conditions: Gynecologic cancer cell panel viability, ATPlite luminescence, 48 h; series mostly up to 57.5 µM
Results filed as inconclusive are left out. Activity calls are given as the source filed them. Calls come from the whole dose curve; as a rule, active = well fitted cell-killing curve with a large enough effect; inconclusive = small, poorly fitted or top-dose-only effect, or effect the other way; inactive = flat fitted curve, though single readings scatter.
Measurement name: Potency

- CCCC(=O)C1CCN(c2ncnc3c2CN(C(=O)c2ccc(-c4ccccc4)cc2)CC3)CC1: inactive
- Cc1cc(C)nc(NS(=O)(=O)c2ccc(NC(=S)NC(=O)COc3ccc(Br)cc3Cl)cc2)n1: inactive
- NCc1ccc(Nc2ncc(F)c(Nc3ccccc3)n2)cc1: 15.8 µM (active)
- C=C[C@H]1C(O[C@@H]2O[C@H](CO)[C@@H](O)[C@H](O)[C@H]2O)OC=C2C(=O)N3CCc4c([nH]c5ccccc45)[C@H]3C[C@H]21 (some centres undefined): inactive
- CC1(C)CC[C@]2(C(=O)O)CC[C@]3(C)C(=CCC4[C@@]5(C)C[C@@H](O)[C@H](O)C(C)(C)C5CC[C@]43C)C2C1 (some centres undefined): inactive
- OC[C@H]1O[C@@H](OCCc2ccc(O)cc2)[C@H](O[C@@H]2OC[C@](O)(CO)[C@H]2O)[C@@H](O)[C@@H]1O: inactive
- C=C[C@@](C)(O)CC/C=C(\C)C(=O)O[C@@H]1[C@@H]2O[C@]2(C)[C@H]2[C@H](O[C@@H]3O[C@H](CO)[C@@H](O)[C@H](O)[C@H]3O)OC=C[C@@]12O: inactive
- C=CCC1=C[C@]2(OC)[C@H](C)[C@@H](c3ccc(O)c(OC)c3)O[C@]2(OC)CC1=O: inactive
- C/C1=C\CC[C@]2(C)O[C@@H]2[C@H](O)[C@H](C(C)C)[C@H](OC(=O)/C=C/c2ccccc2)C1: inactive
- CC(C)(C)NS(=O)(=O)c1cncc(-c2cc(F)c3nc(N)nn3c2)c1: inactive
- COc1cc(C)c(C(=O)O[C@H]2[C@@H](OC(C)=O)[C@H](n3ccc(=O)[nH]c3=O)O[C@@H]2CO)c(OC)c1: inactive
- CC(=O)C=C=C1C(C)(C)CC(O[C@@H]2O[C@H](CO)[C@@H](O)[C@H](O)[C@H]2O)CC1(C)O (some centres undefined): inactive
- Cc1ccc(C)c(OCCn2cc(C(=O)O)c3ccccc32)c1: inactive
- CN[C@H](CC(C)C)C(=O)N[C@H]1C(=O)N[C@@H](CC(N)=O)C(=O)N[C@H]2C(=O)N[C@H]3C(=O)N[C@H](C(=O)N[C@H](C(=O)O)c4cc(O)cc(O)c4-c4cc3ccc4O)[C@H](O[C@H]3C[C@](C)(N)[C@@H](O)[C@H](C)O3)c3ccc(c(Cl)c3)Oc3cc2cc(c3O[C@@H]2O[C@H](CO)[C@@H](O)[C@H](O)[C@H]2O[C@H]2C[C@](C)(NCc3ccc(-c4ccc(Cl)cc4)cc3)[C@@H](O)[C@H](C)O2)Oc2ccc(cc2Cl)[C@H]1O: inactive
- C/C(=C\CCC(C)CCO)C(=O)O[C@@H]1[C@@H](O)[C@H](OC2OC=C(C(=O)O)C3CCC(C)(O)C23)O[C@H](CO)[C@H]1O (some centres undefined): inactive
- C[C@@H]1O[C@@H](O[C@H]2[C@@H]3C=CO[C@@H](O[C@@H]4O[C@H](CO)[C@@H](O)[C@H](O)[C@H]4O)[C@@H]3[C@@]3(CO)O[C@@H]23)[C@H](OC(=O)/C=C/c2ccc(O)c(O)c2)[C@H](O)[C@H]1O: inactive
- C=CC(C)(C)c1[nH]c2cc3c(cc2c1CC1NC(=O)C2CCCN2C1=O)C=CC(C)(C)O3 (centres undefined): inactive
- CC(=O)OC1CC2(C)C3=CCC4(C)C5C(O)C(O)C(C(C)C)C5(C)CCC4(C)C3CCC2C(C)(C)C1OC1OC(CO)C(O)C(O)C1O (centres undefined): inactive
- CC1(C)CCCC2(C)C1C(O)C=C(CO)C2(O)CO (centres undefined): inactive
- CC(C)[C@@H]1C(=O)N(S(C)(=O)=O)[C@@H]2CCN(C(=O)/C=C/CN3CCCCC3)[C@H]21: inactive
- COc1ccc([C@H]2CNC(=O)C2)cc1OC1CCCC1: inactive
- CC1(C)CCC[C@@]2(C)C1[C@H](OC(=O)/C=C/C=C/C(=O)O)C=C1COC(=O)[C@@]12O (some centres undefined): inactive
- COC(=O)c1cc(OC)c(O[C@@H]2O[C@@H](C)[C@H](O)[C@@H](O)[C@H]2O)c(OC)c1: inactive
- CC(C)c1cc(C(=O)N2CC[C@H](NC(=O)C3CC3)C2)n[nH]1: inactive
- CC1=C(C(=O)O)/C(=C/CO[C@@H]2O[C@H](COC(=O)/C=C/c3ccc(O)cc3)[C@@H](O)[C@H](O)[C@H]2O)C(O)C1 (some centres undefined): inactive
- C=C1C[C@]23C[C@H]1CC[C@H]2[C@@]12CC[C@H](O)[C@@](C)(C(=O)O1)[C@H]2[C@@H]3C(=O)O: inactive
- CC(C)C(=O)OC[C@H]1O[C@H](O[C@H]2O[C@H](CO)[C@@H](O)[C@H](O)[C@H]2O)[C@H](O)[C@@H](O)[C@@H]1O: inactive
- C/C=C/c1ccc2c(c1)[C@@H](C)[C@H](c1ccc(O)cc1)O2: inactive
- COC(=O)C1=CO[C@@H](O[C@@H]2O[C@H](CO)[C@@H](O)[C@H](O)[C@H]2O)[C@@H]2C(CO)=CC[C@]12O: inactive
